Target: GFP-G3BP1(WT) (UniProt Q13283 1-466)
Sequence (Q13283 whole entry): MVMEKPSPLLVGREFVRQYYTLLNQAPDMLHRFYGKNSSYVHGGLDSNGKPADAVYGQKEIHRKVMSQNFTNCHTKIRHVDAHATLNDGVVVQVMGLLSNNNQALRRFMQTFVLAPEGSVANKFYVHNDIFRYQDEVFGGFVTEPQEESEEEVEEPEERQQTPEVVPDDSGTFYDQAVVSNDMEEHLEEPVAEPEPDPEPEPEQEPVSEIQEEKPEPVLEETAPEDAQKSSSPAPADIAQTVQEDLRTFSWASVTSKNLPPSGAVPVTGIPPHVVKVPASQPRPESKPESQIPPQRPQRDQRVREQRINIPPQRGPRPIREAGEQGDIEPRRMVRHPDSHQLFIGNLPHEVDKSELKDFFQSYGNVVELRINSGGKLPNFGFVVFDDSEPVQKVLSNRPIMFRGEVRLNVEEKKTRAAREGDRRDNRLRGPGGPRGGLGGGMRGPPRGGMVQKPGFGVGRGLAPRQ
Assay: EMSA
pKd: −log10 of the molar value.
Observation Type: pKd

Ask: May I ask what pKd has been recorded for A(60)-Cy5 RNA (ssRNA, 3' pCp-Cy5 ligated (adds one 3' C)) RNA: AAAAAAAAAAAAAAAAAAAAAAAAAAAAAAAAAAAAAAAAAAAAAAAAAAAAAAAAAAAA ?
Reply: ~5.70
